Source listed as ChEMBL document CHEMBL4513216.

# ASSAY TEXT: Toxicity liver stage against HepG2, at 10uM
# Assay type: cell-based
# Set-up: test concentration 10 uM, cell line HepG2-A16-CD81EGFP
# RUN CONDITIONS: human, HepG2-A16-CD81EGFP cells; read-out: INHIBITION
OBSERVATION TYPE: cytotoxicity at 10 µM (%)
Write the number in % without appending the unit.

Solved entries (count: 8):
MOLECULE	OBSERVATION TYPE	RESULT UNIT	DATA VALUE
Cc1cnc2n(c1=O)CC(C(=O)Nc1ccon1)CS2 (centres undefined)	cytotoxicity at 10 µM	%	0.595
O=S(=O)(NCCCn1cncn1)c1ccc2c(c1)CCO2	cytotoxicity at 10 µM	%	-10.2
Cc1ccc(F)c(-n2nnc(C(=O)O)c2-c2ccncc2)c1	cytotoxicity at 10 µM	%	-4.89
CC(C)N(Cc1cccc(Cl)c1)Cc1nc2c(cnn2C)c(=O)[nH]1	cytotoxicity at 10 µM	%	1.97
O=C(c1ccncc1F)N1Cc2nc(COCC3CC3)oc2C1	cytotoxicity at 10 µM	%	-99.9
CC(C)CC(=O)Nc1c(-c2ccc(F)cc2)ncn1C	cytotoxicity at 10 µM	%	5.87
COc1c(CNC(c2ccccc2)c2nccn2C)c(C)nn1C (centres undefined)	cytotoxicity at 10 µM	%	-3.16
CN(C)C(=O)c1cc(NC(=O)N2CCCC(C(F)(F)F)C2)ccn1 (centres undefined)	cytotoxicity at 10 µM	%	-3.58

Form field: reported cytotoxicity at 10 µM of CC(C)(C)C(=O)NCCC(=O)N1CCC(Nc2cccnn2)CC1
-4.11

Would you kindly repeat that for COc1ccc(N2CCN(C(=O)CCCc3cn[nH]c3)CC2=O)cc1 ?
-9.9

Okay, and CS(=O)(=O)NCC1CCCN(C(=O)c2cc3ccccc3o2)C1 (centres undefined) ?
-1.82
